# TEST DESCRIPTION: Primary qHTS for delayed death inhibitors of the malarial parasite plastid, 48 hour incubation
# TEST PARAMETERS: P. falciparum luciferase growth in erythrocytes; series mostly up to 28.7 µM
About 18,000 (5.8%) of roughly 310,000 compounds were called active. Inconclusive results (about 22%) are left out. Calls follow the shape of the dose curve; as a rule, active = well fitted inhibition curve with a large enough effect; inconclusive = small, poorly fitted or top-dose-only effect, or another doubt; inactive = no such curve, though single readings can be large or run the other way. The entries come from a sample that favours actives as a whole.
Possible outcomes: active, inactive

INSERT INTO measurements (compound, group_label) VALUES
  ('O=S(=O)(NC1CCCCC1N1CCCCC1)c1ccc(Cl)cc1 (stereo unspecified)', 'inactive'),
  ('CC(=O)c1cc(-c2ccccc2)n(CC(=O)NC2CCCCC2)c1C', 'inactive'),
  ('CN(C(=O)CC1C(=O)NCCN1Cc1ccc2ccccc2c1)C1CCOCC1 (stereo unspecified)', 'inactive'),
  ('O=C(CN1C(=O)CC(c2ccccc2)S(=O)(=O)c2ccccc21)NC1CCCC1 (stereo unspecified)', 'inactive'),
  ('Cc1sc(NC(=O)C2=COCCO2)c(C#N)c1C', 'inactive'),
  ('CNS(=O)(=O)c1ccc(NC(=O)Nc2ccc3c(c2)OCO3)cc1', 'inactive'),
  ('CSc1nc(N)c(C#N)c(-c2ccccc2Cl)c1C#N', 'inactive'),
  ('O=C(CN1C(=O)CC(c2ccccc2)=Nc2ccccc21)NC1CCCCC1', 'active'),
  ('Cc1cc(-c2ccc(C)c(S(=O)(=O)Nc3ccc(S(N)(=O)=O)cc3)c2)on1', 'inactive'),
  ('CSc1ccc(-c2c(C#N)c(N)nc3c2c(C)nn3-c2ccccc2)cc1', 'active'),
  ('COc1ccc(CN2CCNC(=O)C2CC(=O)NCc2cn[nH]c2-c2ccccc2)c(F)c1 (stereo unspecified)', 'inactive');

###

# TEST DESCRIPTION: Primary qHTS for delayed death inhibitors of the malarial parasite plastid, 48 hour incubation
# TEST PARAMETERS: P. falciparum luciferase growth in erythrocytes; series mostly up to 28.7 µM
The whole screen tested about 310,000 compounds, of which about 18,000 (5.8%) were called active. Another 22% or so got no clear call; they are omitted. The call rests on the fitted dose curve; in most records, active means well fitted inhibition curve with a large enough effect; inconclusive means small, poorly fitted or top-dose-only effect, or another doubt; inactive means no such curve, though single readings can be large or run the other way. The sample as a whole holds a higher share of actives than the screen did.
Outcomes: active, inactive

INSERT INTO results (compound, group_label) VALUES
  ('CCOc1ccc(-c2noc(CCC(=O)NC3CCCC3)n2)cc1OC', 'inactive'),
  ('COc1ccc(OCC(=O)OCC(=O)Nc2ccc(S(=O)(=O)N3CCCCC3)cc2)cc1', 'inactive'),
  ('CCc1nc(NCCO)c(C#N)c2c1CCCC2', 'inactive'),
  ('CC(C)(C)c1ccccc1NC(=O)CN1C(=O)NC2(CCCC2)C1=O', 'inactive'),
  ('CC(C)CN(CC(C)C)C(=O)CN1c2cccc3cccc(c23)S1(=O)=O', 'inactive'),
  ('CCCOc1ccc(C(=O)C(CCC(CNCC)C(=O)c2ccc(OCCC)cc2)CNCC)cc1 (stereo unspecified)', 'active'),
  ('O=C(CN1CCCCCC1)Nc1ccc(Br)cc1[N+](=O)[O-]', 'inactive'),
  ('COc1ccc(C2NC(=O)N(C)C(C)=C2[N+](=O)[O-])cc1 (stereo unspecified)', 'inactive'),
  ('COCCN1CCn2c(nc3cc(NS(C)(=O)=O)ccc32)C1', 'inactive'),
  ('CCN1C(=O)C(=O)N(CC(=O)Nc2cc(C)ccc2C)C1=O', 'inactive'),
  ('CCOc1ccc(S(=O)(=O)N2CCN=C2Cc2ccccc2)cc1C', 'inactive');
